Biological target: c-MET (Homo sapiens, UniProt P08581)
Construct: Purified GST fusion protein containing the Met kinase domain, Sugen, Inc
Sequence (P08581 1078-1345 limits assumed): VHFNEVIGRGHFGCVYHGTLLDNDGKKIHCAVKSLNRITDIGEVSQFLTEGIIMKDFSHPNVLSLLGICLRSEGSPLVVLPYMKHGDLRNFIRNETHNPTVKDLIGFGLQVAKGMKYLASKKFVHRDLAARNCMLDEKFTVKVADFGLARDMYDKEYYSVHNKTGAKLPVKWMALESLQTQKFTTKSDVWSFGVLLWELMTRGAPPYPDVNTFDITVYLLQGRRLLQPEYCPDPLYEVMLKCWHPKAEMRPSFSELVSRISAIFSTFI
Experiment: Met Transphosphorylation Assay (ELISA, poly(Glu,Tyr) 4:1 substrate)
Conditions: purified GST fusion protein containing the Met kinase domain
Outcome measure: IC50 (nM)

{"columns": ["Compound", "Subject of test", "IC50 (nM)"],
 "data": [
  ["Fc1ccc(Cc2nnc3ncc(-c4ccccc4)nn23)cc1 [Example 4]", "c-MET (Homo sapiens, UniProt P08581)", 50],
  ["Cc1nn2c(Cc3ccc(O)cc3)nnc2nc1N [Example 9]", "c-MET (Homo sapiens, UniProt P08581)", 830],
  ["Fc1ccc(Cc2nnc3ncc(-c4cccs4)nn23)cc1 [Example 5]", "c-MET (Homo sapiens, UniProt P08581)", 13],
  ["Oc1ccc(Cc2nnc3nccnn23)cc1 [Example 7]", "c-MET (Homo sapiens, UniProt P08581)", 56]
]}

I: Fc1ccc(Cc2nnc3ncc(-c4ccc(Br)cc4)nn23)cc1 [Example 6]
II: Oc1ccc(Cc2nnc3ncc(-c4cccs4)nn23)cc1 [Example 2]
Q. Given the listed items, does I or II have the lesser reported IC50? // respond with label for picked entry
A. II
(II: 4 nM, I: 45 nM)
